Each item that follows carries a reported inhibition.
experimental-target: Insulin receptor-related protein (Homo sapiens) (UniProt P14616);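 also: mean percent inhibition of IRR, reported within the GSK PKIS screening panel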
Sequence (P14616 27-742 limits assumed): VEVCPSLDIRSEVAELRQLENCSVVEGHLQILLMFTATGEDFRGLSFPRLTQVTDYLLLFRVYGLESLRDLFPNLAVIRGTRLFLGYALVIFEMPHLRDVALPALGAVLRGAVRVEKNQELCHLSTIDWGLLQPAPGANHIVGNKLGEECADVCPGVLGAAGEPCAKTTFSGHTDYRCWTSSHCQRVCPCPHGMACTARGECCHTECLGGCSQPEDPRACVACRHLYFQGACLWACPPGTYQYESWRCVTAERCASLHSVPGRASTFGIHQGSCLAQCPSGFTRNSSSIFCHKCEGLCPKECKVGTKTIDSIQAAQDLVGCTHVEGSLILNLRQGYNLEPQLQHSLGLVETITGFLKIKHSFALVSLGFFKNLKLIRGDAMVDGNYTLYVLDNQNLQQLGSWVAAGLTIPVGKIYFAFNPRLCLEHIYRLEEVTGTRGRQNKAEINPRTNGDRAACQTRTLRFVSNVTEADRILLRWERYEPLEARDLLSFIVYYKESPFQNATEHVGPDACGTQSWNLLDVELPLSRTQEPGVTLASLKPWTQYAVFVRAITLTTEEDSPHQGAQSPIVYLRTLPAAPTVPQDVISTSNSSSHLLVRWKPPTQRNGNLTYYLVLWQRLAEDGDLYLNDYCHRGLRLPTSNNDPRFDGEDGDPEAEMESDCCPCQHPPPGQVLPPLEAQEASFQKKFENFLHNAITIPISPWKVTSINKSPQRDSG
Sequence (P14616 747-1297 limits assumed): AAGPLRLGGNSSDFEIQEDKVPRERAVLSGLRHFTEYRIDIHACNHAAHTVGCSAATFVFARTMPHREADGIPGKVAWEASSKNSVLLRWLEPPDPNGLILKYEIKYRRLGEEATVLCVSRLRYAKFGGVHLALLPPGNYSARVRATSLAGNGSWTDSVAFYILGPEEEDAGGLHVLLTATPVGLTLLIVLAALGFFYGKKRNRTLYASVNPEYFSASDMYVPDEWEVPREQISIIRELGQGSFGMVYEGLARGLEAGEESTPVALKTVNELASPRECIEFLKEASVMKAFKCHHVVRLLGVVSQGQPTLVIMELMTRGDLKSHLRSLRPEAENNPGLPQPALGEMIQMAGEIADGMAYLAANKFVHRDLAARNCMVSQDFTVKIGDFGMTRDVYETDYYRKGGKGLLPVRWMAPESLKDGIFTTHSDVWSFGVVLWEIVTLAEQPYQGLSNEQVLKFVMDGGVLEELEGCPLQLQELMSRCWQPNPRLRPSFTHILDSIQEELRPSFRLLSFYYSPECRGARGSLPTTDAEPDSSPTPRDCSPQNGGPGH
measurement-setup: at 0.1 µM

compound: CCc1cccc(CC)c1/C=C/c1cncc(C(=O)NC)c1
result-unit: %
inhibition: 5.5

compound: Fc1ccc(-c2nc3n(c2-c2ccncc2)CCS3)cc1
result-unit: %
inhibition: 2.11

compound: O=C(Nc1n[nH]c2cc(-c3cc(F)ccc3F)ccc12)C1CC1
result-unit: %
inhibition: 1.56

compound: C[C@@H](Oc1cc(-n2cnc3ccc(OCC4CCN(C)CC4)cc32)sc1C(N)=O)c1ccccc1Cl
result-unit: %
inhibition: 2.3

compound: Fc1ccc(-c2ncn(CCCN3CCOCC3)c2-c2ccncc2)cc1
result-unit: %
inhibition: -0.04

compound: CN(C)c1ccc2c(c1)/C(=C/Nc1ccc(S(N)(=O)=O)cc1)C(=O)N2
result-unit: %
inhibition: 0.97

compound: Cc1ccc(C(=O)NC(C)C)cc1-c1ccc(C(=O)NCC2CC2)cc1
result-unit: %
inhibition: -4.15

compound: NC(=O)c1cc(-c2ccc(F)cc2)cc(-c2ccncc2)c1N
result-unit: %
inhibition: 1.58

compound: COc1cc(N2CCN(C(C)C)CC2)ccc1Nc1nc(Nc2ccc(F)cc2C(=O)NC[C@@H](O)CO)c2cc[nH]c2n1
result-unit: %
inhibition: 26.6

compound: NS(=O)(=O)c1ccc(Nc2cc(-c3ccc(O)c(F)c3)n[nH]2)cc1
result-unit: %
inhibition: -4.66

compound: Nc1nccc(-c2c(-c3ccc(F)cc3)ncn2C2CCC(O)CC2)n1 (stereo unspecified)
result-unit: %
inhibition: -0.97

compound: COC(=O)Nc1nc2ccc(Sc3ccc(NC(=O)Nc4cc(C(F)(F)F)ccc4F)cc3)cc2[nH]1
result-unit: %
inhibition: 1.45

compound: COc1cc2ncn(-c3cc(OCCc4ccccc4)c(C(N)=O)s3)c2cc1OC
result-unit: %
inhibition: 2.17

compound: C#Cc1cccc(Nc2ncnc3ccc(OCCCCNCCS(C)(=O)=O)cc23)c1
result-unit: %
inhibition: 2.65

compound: NC(=O)c1cc(-c2ccncc2)cc(-c2ccccc2)c1N
result-unit: %
inhibition: 2.11

compound: O=C1NC(=O)C(c2cccc(Cl)c2)=C1Nc1ccc(Cl)c(C(=O)O)c1
result-unit: %
inhibition: 1.75

compound: CN(c1ccc(NC(=O)Nc2c(Cl)cccc2Cl)cc1)c1ccnc(Nc2cccc(CS(C)(=O)=O)c2)n1
result-unit: %
inhibition: 2.73

compound: CN(C)CCOc1ccc(-c2cc(-c3ccc4c(c3)CCC4=NO)c(-c3ccncc3)o2)cc1
result-unit: %
inhibition: -1.33

compound: Cc1ccc(C(=O)NC2CCC2)cc1-c1ccc(C(=O)NCC2CC2)cc1
result-unit: %
inhibition: 0.92

compound: CNC(=O)c1cncc(/C=C/c2c(C)cccc2C)c1
result-unit: %
inhibition: 2.26

compound: COc1ccc2cc(-c3c(-c4ccncc4)nc(-c4ccc(S(C)(=O)=O)cc4C)n3C)ccc2c1
result-unit: %
inhibition: 2.39
